Give measured T/C for each item. Keep answers brief.
# System: L1210 leukemia ip in BDF1 mice, survival T/C
# assay method text: NCI In Vivo Anticancer Drug Screen. Data for tumor model L1210 Leukemia (intraperitoneal) in B6D2F1 (BDF1) mice
# condition notes: endpoint: mean survival time; dose: 25.0 mg/kg/injection; schedule: Q01DX001 (ip); vehicle: saline; higher = longer survival
Toxic doses and inconclusive results are not listed.

Ask | Can you look up the measured T/C of "CS(=O)(=O)OCCCNCCCOS(C)(=O)=O" for me?
Reply | 115 % of control

Ask | Please answer likewise for "COc1cccc2c1[nH]c1cc3ccncc3cc12"
Reply | 107 % of control

Ask | Please answer likewise for "CNC(=O)OCCOC(=O)c1ccc(OC(=O)NC)cc1"
Reply | 95 % of control

Ask | Please answer likewise for CC(C#N)OC(=O)c1ccccc1 (stereo not given)
Reply | 105 % of control

Ask | Please answer likewise for "NS(=O)(=O)c1ccc(Cc2[nH]c(=O)[nH]c(=O)c2Br)cc1"
Reply | 101 % of control
